Biological target: bovine trypsin (Bos taurus, UniProt P00760)
Sequence (P00760 24-246): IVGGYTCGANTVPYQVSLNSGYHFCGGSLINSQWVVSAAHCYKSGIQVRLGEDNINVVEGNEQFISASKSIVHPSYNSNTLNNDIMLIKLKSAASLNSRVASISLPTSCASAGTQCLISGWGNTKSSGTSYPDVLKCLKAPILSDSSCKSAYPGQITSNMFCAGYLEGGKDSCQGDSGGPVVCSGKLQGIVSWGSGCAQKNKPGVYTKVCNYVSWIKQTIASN
Assay: Antitrypsin activity: inhibition of S-2238 decomposition
Type: biochemical
Conditions: Table 2; S-2238 substrate, pH 8.1, 37° C.; read-out: Trypsin S-2238 (I50)
Structures can show the parent of a compound that is named as a salt.
metric: IC50 (µM)

Answered cases to consult:
Input: Consider the compound NC[C@H]1CC[C@H](C(=O)NC(Cc2ccc(N)cc2)C(=O)Nc2ccc(C(=O)c3ccccc3)cc2)CC1 (some centres unmarked) [compound 33] . State its measured IC50.
Output: 0.52

Input: Consider the compound Cc1ccc(NC(=O)[C@H](Cc2ccc(OCc3ccccc3)cc2)NC(=O)[C@H]2CC[C@H](CN)CC2)cc1C [compound 58] . State its measured IC50.
Output: 1.3

Input: Consider the compound CC1CCC(NC(=O)[C@H](Cc2ccc(OCc3ccccc3)cc2)NC(=O)c2ccc(CN)cc2)CC1 (some centres unmarked) [compound 38] . State its measured IC50.
Output: 2.5

Input: Consider the compound CC1CCC(NC(=O)C(Cc2ccc(OCc3ccc(F)cc3)cc2)NC(=O)c2ccc(CN)cc2)CC1C (centres unmarked) [compound 106] . State its measured IC50.
Output: 3

Input: Consider the compound CCOC(=O)C1CCCC(NC(=O)[C@H](Cc2ccc(OCc3cccc(Cl)c3)cc2)NC(=O)[C@H]2CC[C@H](CN)CC2)C1 (some centres unmarked) [compound 70] . State its measured IC50.
Output: 1.3

[A] NCc1ccc(C(=O)N[C@@H](Cc2ccccc2)C(=O)Nc2cccc(C(F)(F)F)c2)cc1 [compound 131]
[B] CCOC(=O)C1CCCC(NC(=O)[C@H](Cc2ccc(OCc3cccc(Cl)c3)cc2)NC(=O)c2ccc(CN)cc2)C1 (some centres unmarked) [compound 72]
Input: Please state the entry with greater IC50 among A and B . Mark your selection by writing its label.
Output: A
(A: 4.4 µM, B: 0.95 µM)

[A] CC1CCCC(NC(=O)[C@H](Cc2ccc(OCc3ccccc3)cc2)NC(=O)c2ccc(CN)cc2)C1C (some centres unmarked) [compound 82]
[B] NC[C@H]1CC[C@H](C(=O)N[C@@H](Cc2ccc(OCc3ccccc3)cc2)C(=O)Nc2ccnc(Cl)c2)CC1 [Compound No. 59, hydrochloride]
Input: Of A and B , whose reported IC50 is numerically smaller? Mark your selection by writing its label.
Output: B

[P] CC(=O)c1ccc(NC(=O)[C@H](Cc2ccc(OCc3ccc(Cl)cc3)cc2)NC(=O)[C@H]2CC[C@H](CN)CC2)cc1 [Compound No. 5]
[Q] Cc1ccc(NC(=O)[C@H](Cc2ccc(OCc3ccccc3)cc2)NC(=O)c2ccc(CN)cc2)cc1C [compound 65]
Input: Of P and Q , whose reported IC50 is numerically smaller? Mark your selection by writing its label.
Output: P
(P: 0.84 µM, Q: 5 µM)

[A] CC(=O)c1ccc(NC(=O)[C@H](Cc2ccc(OCc3cc(Cl)ccc3Cl)cc2)NC(=O)[C@H]2CC[C@H](CN)CC2)cc1 [compound 125]
[B] NCc1ccc(C(=O)N[C@@H](Cc2ccc(OCc3ccccc3)cc2)C(=O)NCc2ccncc2)cc1 [Compound No. 96, dihydrochloride]
Input: Of A and B , whose reported IC50 is numerically smaller? Mark your selection by writing its label.
Output: A
(A: 0.8 µM, B: 22 µM)

---

biological target: human plasmin (Homo sapiens); test: biochemical; details: read-out: Plasmin S-2251 (I50)
Sequence (P00747 581-810 limits assumed): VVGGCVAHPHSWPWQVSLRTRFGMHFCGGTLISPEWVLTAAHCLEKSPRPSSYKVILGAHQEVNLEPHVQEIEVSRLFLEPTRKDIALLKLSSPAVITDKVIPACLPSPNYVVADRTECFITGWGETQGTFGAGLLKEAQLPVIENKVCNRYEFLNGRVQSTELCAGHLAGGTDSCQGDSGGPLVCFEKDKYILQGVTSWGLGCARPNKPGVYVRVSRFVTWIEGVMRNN
Sequence (P00747 97-580 partner limits assumed): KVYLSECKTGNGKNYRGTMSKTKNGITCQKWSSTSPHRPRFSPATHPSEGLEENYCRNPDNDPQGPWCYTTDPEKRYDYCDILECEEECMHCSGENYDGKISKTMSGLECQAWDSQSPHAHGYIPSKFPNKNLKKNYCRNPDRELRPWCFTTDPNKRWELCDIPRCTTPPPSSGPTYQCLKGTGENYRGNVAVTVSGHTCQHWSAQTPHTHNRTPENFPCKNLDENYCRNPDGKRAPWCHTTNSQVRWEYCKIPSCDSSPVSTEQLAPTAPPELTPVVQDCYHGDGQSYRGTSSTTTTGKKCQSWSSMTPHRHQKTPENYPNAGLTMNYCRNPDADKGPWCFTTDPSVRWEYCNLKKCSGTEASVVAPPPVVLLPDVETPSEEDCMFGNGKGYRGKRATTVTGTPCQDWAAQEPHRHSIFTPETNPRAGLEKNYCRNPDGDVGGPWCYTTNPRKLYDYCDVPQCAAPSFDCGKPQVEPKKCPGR
pIC50: −log10 of the molar value. Structures can show the parent of a compound that is named as a salt.
metric: pIC50

Answered cases to consult:
Input: Consider the compound CC(=O)c1ccc(NC(=O)[C@H](Cc2ccc(OCc3cccc([N+](=O)[O-])c3)cc2)NC(=O)[C@H]2CC[C@H](CN)CC2)cc1 [compound 54] . State its measured pIC50.
Output: 6.00

Input: Consider the compound NC[C@H]1CC[C@H](C(=O)N[C@@H](Cc2ccc(OCc3ccc(Cl)c(Cl)c3)cc2)C(=O)Nc2ccncc2)CC1 [compound 127] . State its measured pIC50.
Output: 5.82

Input: Consider the compound CC(=O)c1ccc(NC(=O)[C@H](Cc2ccc(Oc3ccc([N+](=O)[O-])cn3)cc2)NC(=O)[C@H]2CC[C@H](CN)CC2)cc1 [Compound No. 121, hydrochloride] . State its measured pIC50.
Output: 6.02

Input: Consider the compound NCc1ccc(C(=O)N[C@@H](Cc2ccc(OCc3ccccc3)cc2)C(=O)NC2CCCCC2)cc1 [Compound No. 114, hydrochloride] . State its measured pIC50.
Output: 5.49

Input: Consider the compound CCOC(=O)c1cccc(NC(=O)[C@H](Cc2ccc(OCc3ccccc3)cc2)NC(=O)[C@H]2CC[C@H](CN)CC2)c1 [compound 75] . State its measured pIC50.
Output: 5.25

Input: Consider the compound NC[C@H]1CC[C@H](C(=O)NC(Cc2ccc(N)cc2)C(=O)Nc2ccc(C(=O)c3ccccc3)cc2)CC1 (some centres unmarked) [compound 33] . State its measured pIC50.
Output: 4.89

Input: Consider the compound NCc1ccc(C(=O)N[C@@H](Cc2ccc(OCc3ccccc3)cc2)C(=O)NCCc2ccccc2)cc1 [compound 78] . State its measured pIC50.
Output: 5.42

Input: Consider the compound NCc1ccc(C(=O)N[C@@H](Cc2ccc(OCc3ccccc3)cc2)C(=O)N2CCC(C(=O)c3ccccc3)CC2)cc1 [compound 76] . State its measured pIC50.
Output: 5.24

[P] NCc1ccc(C(=O)NC(Cc2ccc(OCc3ccccc3)cc2)C(=O)NCc2ccc(F)cc2)cc1 (centres unmarked) [compound 113]
[Q] CC1CCC(NC(=O)C(Cc2ccc(OCc3ccc(F)cc3)cc2)NC(=O)c2ccc(CN)cc2)CC1C (centres unmarked) [compound 106]
Input: Please state the entry with greater pIC50 among P and Q . Mark your selection by writing its label.
Output: Q

[P] CC(=O)c1ccc(NC(=O)[C@H](Cc2ccc(OCc3ccncc3)cc2)NC(=O)[C@H]2CC[C@H](CN)CC2)cc1 [compound 68]
[Q] CC(=O)c1ccc(NC(=O)[C@H](Cc2ccc(OC(C)C)cc2)NC(=O)[C@H]2CC[C@H](CN)CC2)cc1 [compound 14]
[R] NCC1CCC(C(=O)NC(Cc2ccc(OCc3ccccc3)cc2)C(=O)NCc2ccc(F)cc2)CC1 (centres unmarked) [compound 111]
Input: Arrange these compounds by their pIC50, starting with the largest number. Field: ranking. Enter the labels in the order requested.
Output: P, R, Q

---

biological target: human plasmin (Homo sapiens); assay: Antiplasmin activity: inhibition of fibrin decomposition; assay type: biochemical; conditions: Table 2; concentration at which fibrin dissolution time is extended twice, pH 7.4, 37° C.; read-out: Plasmin Fibrin (I50)
metric: IC50 (µM)

Input: Consider the compound `C=CCOc1ccc(C[C@H](NC(=O)[C@H]2CC[C@H](CN)CC2)C(=O)Nc2ccc(C(C)=O)cc2)cc1` . State its measured IC50.
Output: 3.3

[A] CCOC(=O)C1CCCC(NC(=O)[C@H](Cc2ccc(OCc3ccc(F)cc3)cc2)NC(=O)c2ccc(CN)cc2)C1 (stereo partly shown)
[B] CC(=O)c1ccc(NC(=O)[C@H](Cc2ccc(OCc3cc(Cl)ccc3Cl)cc2)NC(=O)[C@H]2CC[C@H](CN)CC2)cc1
[C] NCC1CCC(C(=O)NC(Cc2ccc(OCc3cccc(Cl)c3)cc2)C(=O)Nc2cccc(S(N)(=O)=O)c2)CC1 (stereo not shown)
Input: Order the entries by their reported IC50, beginning at the minimum. Field: ranking. Enter the labels in the order requested.
Output: B, C, A

---

target: human plasma kallikrein (Homo sapiens, UniProt P03952); assay: Anti-plasma kallikrein activity: inhibition of S-2302 decomposition; format: biochemical; conditions: Table 2; S-2302 substrate, pH 7.8, 37° C.; read-out: Plasma Kallikrein S-2302 (I50)
Sequence (P03952 391-638 limits assumed): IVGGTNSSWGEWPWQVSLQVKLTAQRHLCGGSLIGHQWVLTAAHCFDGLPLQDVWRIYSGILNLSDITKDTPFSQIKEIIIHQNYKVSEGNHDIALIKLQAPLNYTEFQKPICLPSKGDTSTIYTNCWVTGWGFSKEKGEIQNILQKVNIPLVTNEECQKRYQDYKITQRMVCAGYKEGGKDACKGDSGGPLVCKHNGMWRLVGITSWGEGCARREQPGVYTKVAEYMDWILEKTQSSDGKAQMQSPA
Sequence (P03952 20-390 partner limits assumed): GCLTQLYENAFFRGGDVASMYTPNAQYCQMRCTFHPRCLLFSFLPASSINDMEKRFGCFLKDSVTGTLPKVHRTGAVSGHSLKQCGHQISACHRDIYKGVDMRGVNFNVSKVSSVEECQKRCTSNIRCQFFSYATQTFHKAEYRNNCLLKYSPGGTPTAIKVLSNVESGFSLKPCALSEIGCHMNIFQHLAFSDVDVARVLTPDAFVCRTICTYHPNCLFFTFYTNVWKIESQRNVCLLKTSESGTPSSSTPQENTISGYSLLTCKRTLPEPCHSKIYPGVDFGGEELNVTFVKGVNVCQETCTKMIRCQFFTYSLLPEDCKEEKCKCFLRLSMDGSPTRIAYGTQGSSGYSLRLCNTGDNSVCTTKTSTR
metric: IC50 (µM)

Input: Consider the compound `COc1ccc(NC(=O)[C@H](Cc2ccc(OCc3ccccc3)cc2)NC(=O)c2ccc(CN)cc2)cn1` . State its measured IC50.
Output: 18

[P] NCc1ccc(C(=O)N[C@@H](Cc2ccc(OCc3ccccc3)cc2)C(=O)NC2CCC(O)CC2)cc1 (stereo partly shown)
[Q] NCC1CCC(C(=O)NC(Cc2ccc(OCc3cccc(Cl)c3)cc2)C(=O)Nc2cccc(S(N)(=O)=O)c2)CC1 (stereo not shown)
[R] CCOC(=O)C1CCCC(NC(=O)[C@H](Cc2ccc(OCc3cccc(Cl)c3)cc2)NC(=O)c2ccc(CN)cc2)C1 (stereo partly shown)
Input: Arrange these compounds by their IC50, starting with the largest number. Field: ranking. Enter the labels in the order requested.
Output: P, R, Q
(P: 120 µM, R: 25 µM, Q: 1.2 µM)
